# ASSAY_INFO: in vitro
# DETAILS: human
PROPERTY_NAME: viability at 48 h, 20 µM (%)
Entry rule: numbers only, all in %.

Name the recorded viability at 48 h, 20 µM for S=C=NCCc1ccccc1 [PEITC, phenetyl isothiocyanate] .
43

###

# ASSAY_INFO: in vitro
# DETAILS: human
PROPERTY_NAME: CC50 at 48 h

CC50 at 48 h lookup needed for O=c1cc(-c2ccc(O)c(O)c2)oc2cc(O)cc(O)c12 , thanks.
> 100 µM

Request the reported CC50 at 48 h associated with COc1cc(/C=C/C(=O)CC(=O)/C=C/c2ccc(O)c(OC)c2)ccc1O
44.3 µM

State the recorded CC50 at 48 h for this entry: C[C@H]1[C@H](C)CC[C@]2(C(=O)O)CC[C@]3(C)C(=CC[C@@H]4[C@@]5(C)CC[C@H](O)C(C)(C)[C@@H]5CC[C@]43C)[C@H]12
35.4 µM

###

# ASSAY_INFO: Cell viability (MTT)
# DETAILS: human
Could you please report measured CC50 at 48 h for the items listed next?

Need CC50 at 48 h, item COc1ccc(-c2cc(=O)c3c(OC)c(OC)c(OC)c(OC)c3o2)cc1
> 100 µM

May I ask what CC50 at 48 h has been recorded for C[C@@H]1O[C@@H](OC[C@H]2O[C@@H](Oc3c(-c4ccc(O)c(O)c4)oc4cc(O)cc(O)c4c3=O)[C@H](O)[C@@H](O)[C@@H]2O)[C@H](O)[C@H](O)[C@H]1O ?
> 100 µM

What value of CC50 at 48 h has been reported for the following compound? O=c1c(-c2ccc(O)cc2)coc2cc(O)cc(O)c12
> 100 µM

// returns reported CC50 at 48 h for input O=C(O)c1cc(O)c(O)c(O)c1
> 100 µM

Bench note: what CC50 at 48 h did O=c1c(O)c(-c2ccc(O)c(O)c2)oc2cc(O)cc(O)c12 show?
> 100 µM

###

I'd appreciate it if you could supply viability at 48 h, 100 µM values for the items below.
# ASSAY_INFO: Cell viability (MTT)
# DETAILS: human, NCI-N87 gastric carcinoma cells
Enter your answer as a number in %; do not include the unit.

Param item = O=C(O)c1cc(O)c(O)c(O)c1 [Gallic acid] ; retrieve measured viability at 48 h, 100 µM.
97

Fill in: viability at 48 h, 100 µM of O=S(=O)(O)O/N=C(/CCc1ccccc1)S[C@@H]1O[C@H](CO)[C@@H](O)[C@H](O)[C@H]1O [PEGLS, gluconasturtiin] is ___
90

// lookup viability at 48 h, 100 µM for COc1cc(/C=C/C(=O)O)ccc1O [Ferulic acid]
82

###

# System: CD74
# ASSAY_INFO: Cell-based ELISA for constitutive CD74 expression
# Design: species or system human
# DETAILS: NCI-N87 cells, 48 h; mean of duplicate experiments; unit printed in b25 only; read-out: IC50 (50% inhibitory concentration) for constitutive CD74 expression
PROPERTY_NAME: IC50

Query: IC50; subject: S=C=NCc1ccccc1 [BITC, benzyl isothiocyanate]
< 20 µM

Which IC50 value is on record for C=CCC/C(=N/OS(=O)(=O)O)S[C@@H]1O[C@H](CO)[C@@H](O)[C@H](O)[C@H]1O ?
> 100 µM

Find the recorded IC50 belonging to O=S(=O)(O)O/N=C(/CCc1ccccc1)S[C@@H]1O[C@H](CO)[C@@H](O)[C@H](O)[C@H]1O and report it.
> 100 µM

Returns the measured IC50 for the input compound. Input: O=C(OC1Cc2c(O)cc(O)cc2OC1c1cc(O)c(O)c(O)c1)c1cc(O)c(O)c(O)c1 (single isomer, unassigned; (-)) [EGCG, (−)-epigallocatechin-3-gallate]
> 100 µM

Any idea what its IC50 is? The compound is COc1cc(/C=C/C(=O)O)ccc1O
> 100 µM

Can you share its IC50? I mean this compound: C=C[C@H](OC(C)=O)c1ccc(OC(C)=O)cc1 [ACA, 1'-acetoxychavicol acetate]
< 20 µM

GET /values?readout=IC50&item= COc1cc(/C=C/C(=O)CC(=O)/C=C/c2ccc(O)c(OC)c2)ccc1O
< 20 µM

Could you share which IC50 value was measured for S=C=NCCc1ccccc1 [PEITC, phenetyl isothiocyanate] ?
< 20 µM

What does the data say about its IC50? Entry: Cn1c(=O)c2c(ncn2C)n(C)c1=O
> 100 µM

Which IC50 is reported for this compound? C[C@@H]1O[C@@H](OC[C@H]2O[C@@H](Oc3c(-c4ccc(O)c(O)c4)oc4cc(O)cc(O)c4c3=O)[C@H](O)[C@@H](O)[C@@H]2O)[C@H](O)[C@H](O)[C@H]1O
> 100 µM

Consider the compound C[C@H]1[C@H](C)CC[C@]2(C(=O)O)CC[C@]3(C)C(=CC[C@@H]4[C@@]5(C)CC[C@H](O)C(C)(C)[C@@H]5CC[C@]43C)[C@H]12 and give its measured IC50.
< 20 µM

Can you look up the measured IC50 of O=C1O[C@H]([C@@H](O)CO)C(O)=C1O for me?
> 100 µM
